system: DLD-1 colon; assay: NCI tumour cell line growth inhibition, 48 h
value.type: TGI

Here's what some known entries look like.
compound | TGI
O=C1Nc2ccccc2C12CCCC2 | > 100 µM
Cc1cc(C)nc(NS(=O)(=O)c2ccc(NC(=O)c3cccc4c(Nc5ccc(S(=O)(=O)Nc6nc(C)cc(C)n6)cc5)c5ccc(Cl)cc5nc34)cc2)n1 | > 100 µM
NC1CCCCC1N.O=C([O-])c1cc(S(=O)(=O)Nc2cc(S(=O)(=O)[O-])cc3cc(S(=O)(=O)[O-])cc(O)c23)ccc1[O-].[Pt+4] | > 100 µM

Param item: C=C1CCC(OC(C)=O)C2(C)C(OC(C)=O)CC3OC3(C)C2C(OC(C)=O)C2C(C)C(=O)OC2C1Cl (stereo unspecified) ; param system: DLD-1 colon; output TGI: > 100 µM

Param item: O=C(O)COc1ccc(C(=O)/C(SS/C(C(=O)c2ccc(OCC(=O)O)c(Cl)c2Cl)=C2\C=C(c3ccc(F)cc3)SS2)=C2/C=C(c3ccc(F)cc3)SS2)c(Cl)c1Cl ; param system: DLD-1 colon; output TGI: > 53.7 µM

Param item: COC(=O)[C@@]12C(=O)CCC(=O)C1C1C(=CC2C)O[C@@H]2OC3(CCCCC3)O[C@H]12 (stereo partly specified) ; param system: DLD-1 colon; output TGI: > 100 µM

Param item: c1ccc(-c2[o+]c(-c3ccccc3)c(-c3ccccc3)c(-c3ccccc3)c2-c2ccccc2)cc1 ; param system: DLD-1 colon; output TGI: > 100 µM

Param item: Cc1cc2c(=O)cc(-c3cccs3)oc2c(C(=O)O)c1C ; param system: DLD-1 colon; output TGI: > 100 µM

Param item: COc1ccc(-c2nc(N)n(C)c2SSc2c(-c3ccc(OC)cc3)nc(N)n2C)cc1 ; param system: DLD-1 colon; output TGI: 15.3 µM

Param item: CNS(=O)(=O)NNS(=O)(=O)c1cccc([N+](=O)[O-])c1 ; param system: DLD-1 colon; output TGI: > 100 µM

Param item: Cc1cc2c(c3c1c1ccccc1n3C)C(=O)c1ccccc1C2=O ; param system: DLD-1 colon; output TGI: > 100 µM

Param item: C#C[C@]1(O)CCC2C3CCc4cc(Oc5nc(F)nc(-n6c(C)nc7cc8ccccc8cc76)n5)ccc4C3CCC21C (stereo partly specified) ; param system: DLD-1 colon; output TGI: > 100 µM

Param item: CN=c1ss/c(=N\C(=S)N(C)C)n1-c1ccccc1 ; param system: DLD-1 colon; output TGI: > 100 µM

Param item: COc1cc(C)cc2c1[nH]c1ccccc12 ; param system: DLD-1 colon; output TGI: > 25 µM

Param item: O=C(/C=C/c1ccc(Cl)cc1)c1ccc(Cl)c(Cl)c1 ; param system: DLD-1 colon; output TGI: > 100 µM

Param item: COc1ccc(C(=O)NCCC2=CCCCC2)cc1 ; param system: DLD-1 colon; output TGI: > 100 µM
